Each recorded value in this set is attributed to the supplement of paper PMC10126150.

system: ATP; test: switch fluorescence ratio, 500 uM ATP over buffer (Cy3 cluster intensity, sum of 5 cycles each) (fold (ratio)); higher = stronger signal-on switching upon ATP binding; sequences stand for … in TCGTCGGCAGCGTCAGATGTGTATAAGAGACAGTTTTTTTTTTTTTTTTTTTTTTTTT…TC; settings: aptamer strand: ATP DNA aptamer (quencher-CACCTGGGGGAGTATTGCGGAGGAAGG + anchor), 100 nM annealed; ATP concentration: 500 uM;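 note: ATP exposure 15 min at 22 °C before imaging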

| sequence code | switch fluorescence ratio |
| --- | --- |
| CGAAACAGCA | 1.01 |
| TTTACTAGAT | 1.05 |
| AGCAGGGGTG | 1.09 |
| CAATGGAGAG | 1 |
| GAGACGGGTG | 1.01 |
| GCGGTGGTTT | 0.998 |
| TTAATAAAC | 1.01 |
| TGTGATGGTT | 1.01 |
| AAAAGTTCTG | 1.01 |
| TCAGGTTTGT | 1.28 |
| GTGGTCGGGA | 1.09 |
| CATGCAGCAT | 1.11 |
| GGTGTTCTGC | 0.995 |
| CAGGTGGGGC | 1.02 |
| TCGTATGGGT | 1 |
| TCGGAATTGC | 1.56 |
| GGTGGAGATC | 1 |
| GGATGGGTCG | 1.02 |
| CGACCGAACA | 1.09 |
| AAGTAAGCAG | 0.964 |
| TAATGGGGTC | 0.98 |
